Values compiled from patent US8569336B2.

# target system: purified catalytic domain of recombinant human TACE (rhTACEc) (Homo sapiens, UniProt P78536, N452Q/S266A)
# Construct: 6xHis (C); made in house; host or cells: baculovirus/Hi5 insect cells
# Sequence (P78536 215-477 S266A/N452Q): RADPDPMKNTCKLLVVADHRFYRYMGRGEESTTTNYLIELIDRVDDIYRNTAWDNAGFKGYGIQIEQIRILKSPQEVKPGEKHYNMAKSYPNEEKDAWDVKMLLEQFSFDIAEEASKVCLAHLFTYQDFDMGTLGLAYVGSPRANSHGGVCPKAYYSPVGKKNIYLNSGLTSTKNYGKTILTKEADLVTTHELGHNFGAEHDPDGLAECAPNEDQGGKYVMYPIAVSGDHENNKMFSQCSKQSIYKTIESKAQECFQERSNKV
# assay overview: TACE kinetic assay: cleavage of internally quenched peptide substrate TNF-FRET 2 (Ki)
# Type: biochemical
# test conditions: TNF-FRET 2 substrate, read-out: Ki
measured attribute: pKi
One number for each entry, as −log10 of the molar value.

Recorded pKi, per entry:
{"structure string": "COc1ccc2c(c1)C(=O)N(C[C@@]1(c3cc4cc(C=O)ccc4o3)NC(=O)NC1=O)C2", "pKi": 9.39}
{"structure string": "COc1ccc2c(c1F)C(=O)N(C[C@@]1(c3cc4cc(F)c(C)nc4o3)NC(=O)NC1=O)C2", "pKi": 9.08}
{"structure string": "CCN1CCN(c2ccc3oc([C@]4(CN5Cc6ccc(OC)c(F)c6C5=O)NC(=O)NC4=O)cc3n2)C[C@H]1C", "pKi": 9.10}

Next molecule, please.
Name the recorded pKi of the item COc1ccc2c(c1)C(=O)N(C[C@@]1(c3cc4cc(CN(C)C)ccc4o3)NC(=O)NC1=O)C2 in your answer.
9.57
